Numbers sourced from paper PMC10786891.

- TARGET UNDER TEST: T1, EsCas13d, nuclease-dead (Eubacterium siraeum, UniProt B0MS50, R295A;H300A;R849A;H854A)
- T1 sequence: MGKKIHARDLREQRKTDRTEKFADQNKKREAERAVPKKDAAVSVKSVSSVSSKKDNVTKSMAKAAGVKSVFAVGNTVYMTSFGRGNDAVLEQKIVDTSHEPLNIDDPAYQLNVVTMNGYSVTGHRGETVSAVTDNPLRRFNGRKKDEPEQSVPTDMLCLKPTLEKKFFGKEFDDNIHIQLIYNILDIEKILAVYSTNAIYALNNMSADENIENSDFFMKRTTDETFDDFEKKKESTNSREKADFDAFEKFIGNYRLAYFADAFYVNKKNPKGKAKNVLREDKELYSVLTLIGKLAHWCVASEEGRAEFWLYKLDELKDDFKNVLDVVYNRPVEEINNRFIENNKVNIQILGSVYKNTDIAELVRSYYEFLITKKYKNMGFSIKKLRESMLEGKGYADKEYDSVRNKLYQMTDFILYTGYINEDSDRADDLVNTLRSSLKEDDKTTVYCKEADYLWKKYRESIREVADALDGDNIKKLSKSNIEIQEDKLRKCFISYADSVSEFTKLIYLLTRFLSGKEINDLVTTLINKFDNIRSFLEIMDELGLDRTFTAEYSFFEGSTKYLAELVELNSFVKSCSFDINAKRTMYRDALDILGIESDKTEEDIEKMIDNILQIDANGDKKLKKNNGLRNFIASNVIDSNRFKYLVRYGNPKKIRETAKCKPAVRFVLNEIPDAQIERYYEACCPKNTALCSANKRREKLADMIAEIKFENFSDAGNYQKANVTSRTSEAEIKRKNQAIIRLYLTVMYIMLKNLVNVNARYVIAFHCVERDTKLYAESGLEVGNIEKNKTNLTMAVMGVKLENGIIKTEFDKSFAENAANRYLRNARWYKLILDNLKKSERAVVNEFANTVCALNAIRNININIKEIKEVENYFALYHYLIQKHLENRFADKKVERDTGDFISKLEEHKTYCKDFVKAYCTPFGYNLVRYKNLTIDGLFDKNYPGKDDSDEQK
- PROCEDURE TEXT: crRNA (strand 1, pre-loaded); Mg2+; 40 mM Tris-HCl pH 7.5, 150 mM NaCl, 6 mM MgCl2, 1 mM DTT, 0.1% Tween-20, 0.2 mg/ml BSA; 25 C; 10 min per concentration, then washed
- MEASUREMENT CONDITIONS: tags: His6-TwinStrep-SUMO cleaved; N-terminal SNAP kept (SNAP-Surface 488); label: 3' end held by stalled T7 RNA polymerase
REPORTED METRIC: pKd
// pKd is dimensionless: -log10 of concentration (M)

Worked examples, 3 binders total:
target 1 G15U,C21U (mixed) RNA 1: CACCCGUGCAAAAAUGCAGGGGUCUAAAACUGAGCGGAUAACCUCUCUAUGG RNA 2: GGGAAUGGAUCCACAUCUACGAAUUCGUACUAUAGAUAGGUUAUCCGCUCACCGAGAUCGGAAGAGCACACGU :: 8.19
target 1 MT 5'PFS AAG 3'PFS UUG (mixed) RNA 1: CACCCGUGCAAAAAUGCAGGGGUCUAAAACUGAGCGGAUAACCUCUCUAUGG RNA 2: GGGAAUGGAUCCACAUCUACGAAUUCAAGCCAUAGAGAGGUUAUCCGCUCAUUGAGAUCGGAAGAGCACACGU :: 7.87
target 1 MT 5'PFS UAG 3'PFS AUG (mixed) RNA 1: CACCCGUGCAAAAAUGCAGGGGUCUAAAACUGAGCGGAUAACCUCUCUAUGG RNA 2: GGGAAUGGAUCCACAUCUACGAAUUCUAGCCAUAGAGAGGUUAUCCGCUCAAUGAGAUCGGAAGAGCACACGU :: 7.33

Input: Which pKd reading was recorded for the binder target 2 MT 5'PFS GAA 3'PFS AUA (mixed) RNA 1: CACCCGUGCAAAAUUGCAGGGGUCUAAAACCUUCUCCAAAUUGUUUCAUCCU RNA 2: GGGAAUGGAUCCACAUCUACGAAUUCGAAAGGAUGAAACAAUUUGGAGAAGAUAAGAUCGGAAGAGCACACGU ?
Output: 8.09

Input: So what's the measured pKd for this one? target 1 MT 5'PFS GUA 3'PFS CGC (mixed) RNA 1: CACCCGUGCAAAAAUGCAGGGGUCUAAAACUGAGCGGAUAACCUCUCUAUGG RNA 2: GGGAAUGGAUCCACAUCUACGAAUUCGUACCAUAGAGAGGUUAUCCGCUCACGCAGAUCGGAAGAGCACACGU
Output: 7.95

Input: Query: pKd; subject: target 1 insC 3' of 13,insA 3' of 12 (mixed) RNA 1: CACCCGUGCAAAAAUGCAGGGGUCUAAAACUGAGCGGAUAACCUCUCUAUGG RNA 2: GGGAAUGGAUCCACAUCUACGAAUUCGUACCAUAGAGAGCGAUUAUCCGCUCACCGAGAUCGGAAGAGCACACGU
Output: 7.80
